# melting point annotations
readout_name: melting point

> print(dat)
                                    compound  reported.result
 1               O=C(O)C(Cl)(Cl)CCCCCCCCCCBr      49 to 51 °C
 2  Cc1c(C(=O)Nc2ccc(N3CCC(N4CCOCC4)CC3)c(Br)c2)cnn1-c1ccc(Cl)cc1    205 to 210 °C
 3  CON(C)C(=O)CN1CCC(CCN2CCN(c3cccc(C)c3C)CC2)CC1            66 °C
 4  COc1ccnc(CCc2nc3cc(-c4ccco4)cnc3[nH]2)c1    147 to 148 °C
 5  O=S1(=O)c2cccc3cccc(c23)N1CCCN1CC=C(c2c[nH]c3ccc(O)cc23)CC1           214 °C
 6  Cc1cnc(-c2ccc(-c3ccccc3S(=O)(=O)Nc3onc(C)c3C)cc2)o1     90 to 100 °C
 7  O=C1CC(c2csc(-n3ccnc3)n2)=Nc2ccc(-c3ccccc3F)cc2N1    194 to 197 °C
 8  COC(=O)c1ccc(COc2ccc(-c3ncccc3S(=O)(=O)N(C(=O)OCC(C)C)c3ncc(C)nc3OC)cc2)cc1    134 to 135 °C
 9  CC(C)(C)c1cc(CCc2ccccc2NC(=O)N2CCC3(CC2)OCCO3)cc(C(C)(C)C)c1O    163 to 164 °C
10  Cn1cc(C2=C(c3ccncc3)C(=O)NC2=O)c2ccccc21    332 to 334 °C
11  CCOC(=O)C(C)N(c1ccc(S(=O)(=O)c2ccccc2)cc1C(F)(F)F)S(C)(=O)=O (centres undefined)           121 °C
12  Cn1c(=O)c(-c2c(Cl)cccc2Cl)cc2cnc(NCc3ccccn3)nc21    198 to 201 °C
13  O=C(O)c1csc(Cn2cc(C3c4ccc(Br)cc4C=Cc4cc(Br)ccc43)c(=S)[nH]c2=O)n1    215 to 217 °C
14  N#CC1CCc2ccc([N+](=O)[O-])cc2C(=O)C1 (centres undefined)           107 °C
15                    OCCCN1CCN(c2ccccc2)CC1      72 to 73 °C
16  Cc1cc(C)cc(C(=O)c2c(C(C)C)c(=O)[nH]c(=O)n2C/C=C/CN=[N+]=[N-])c1    126 to 127 °C
17  O=C1c2ccccc2C(=O)N1CCCCC1N=NC(=S)N1 (centres undefined)    223 to 225 °C
18  O=C(O)C(Cc1ccccc1)C(=O)NOCc1ccccc1 (centres undefined)           147 °C
19  O=C1c2cc(Oc3ccc(Cl)cc3)ccc2CCN1Cc1cccnc1  93.5 to 94.5 °C
